Measured Growth Rate, listed per entry.
system: U2OS; test: Incucyte cell viability with U2OS; format: toxicity, cell-based; settings: human, 18 h, 10 µM, compound concentration 10 uM, replicate number 1; further: unitless GR value; below 1 slowed growth and below 0 cell loss
// return a plain number; no unit text

Completed entries (count: 3):
C[C@@H]1COCCN1c1cc(=O)n2c(n1)N(Cc1cncc(Cl)c1)[C@H](C(F)(F)F)CC2 = 0.87
O=C1NCCSc2c1sc1ccc(O)cc21 = 0.33
CCCCCCCC/C=C\CCCCCCCC(=O)NCc1ccc(O)c(OC)c1 = 0.88

Switching to the query record.
Task: Return reported Growth Rate; argument: `Cc1ccc(NC(=O)c2ccc3c(c2)OCCO3)cc1NC(=O)c1ccc2nc(OCCN3CCCC3)ccc2c1`
Output: -0.16

###

tested on: U2OS; test: Incucyte cell viability with U2OS; type: toxicity, cell-based; details: human, 0 h, 10 µM, compound concentration 10 uM, replicate number 1; further: unitless GR value; below 1 slowed growth and below 0 cell loss
Measure: Growth Rate
The response must contain the number and no unit.

See these solved cases before continuing.
CN(C)c1ccc(-c2cc3ncccc3c(OCCCCO)n2)cc1.O=C(O)C(F)(F)F = -1
Cc1c(C(=O)Nc2cccc(C(F)(F)F)c2)cc(-c2ccccc2)n1CCCN1CCOCC1.Cl = 0.27

Task: May I ask what Growth Rate has been recorded for Cc1cc(C2CCCNC2)ccc1Nc1ncc(Br)c(NCc2cccc3c2C(C)(C)C(=O)N3)n1 (stereo unspecified) ?
Output: -0.95

Task: I would be grateful if you could share the reported Growth Rate for CN1[C@@H](CC(=O)c2ccccc2)CCC[C@H]1C[C@H](O)c1ccccc1.Cl [LOBELINE HYDROCHLORIDE] .
Output: 0.28

Task: Field request: Growth Rate | item: `CCOC(=O)N1CCC(c2cc(O)n3nc(C)c(-c4ccc(F)cc4)c3n2)CC1`
Output: 0.61

Task: What value of Growth Rate has been reported for the following compound? `C[C@]12CC[C@@H]3c4ccc(C(N)=O)cc4CC[C@H]3[C@@H]1CC=C2c1cncc(F)c1`
Output: 0.64

###

system: U2OS; assay: Incucyte cell viability with U2OS; assay type: toxicity, cell-based; conditions: human, 12 h, 10 µM, compound concentration 10 uM, replicate number 1; further: unitless GR value; below 1 slowed growth and below 0 cell loss
# Lookup of reported Growth Rate keyed by entry
Just the number, please.

CC(=O)N1CCN([C@H]2CCC[C@@H](NC(=O)c3cc4c(F)ccc(C)c4[nH]3)C2)CC1.O=C(O)C(F)(F)F = 0.84
O=C(O)C(F)(F)F.O=C1NC(=O)/C(=C/c2c[nH]c(=O)c(-c3ccc(N4CCNCC4)nc3)c2)S1 = 0.92
CC(=O)O.NCCCc1c(C(=O)O)[nH]c2ccc(C(=O)Nc3ccccc3)cc12 = 0.87
N#Cc1ccc(C#CC[C@@H](C#N)NC(=O)[C@@H]2CCCCN2)cc1F = 0.92
Nc1nccc(-c2ccn3c(N)nccc23)n1 = 0.76

Task: If you can, please state the reported Growth Rate value of CN(C)c1cc2c(Nc3ccc4c(cnn4Cc4ccccc4)c3)ncnc2cn1 [GW282974X] .
Output: 0.77

Task: For `Cc1cccc(CC(=O)N2CCc3c2ccc(-c2cn(C)c4ncnc(N)c24)c3F)n1` , what is its reported Growth Rate?
Output: 0.43

Task: Please report the recorded Growth Rate for Cc1nccn1CC1CCc2c(c3ccccc3n2C)C1=O.Cl (stereo not given) .
Output: 0.96

Task: Need Growth Rate, item `Cn1nccc1Nc1nccc(-c2cc3c(s2)C(C)(C)N(CCN2CCOCC2)C3=O)n1`
Output: 0.66

Task: Please report the recorded Growth Rate for `Clc1ccc(-c2nc3sccn3c2/C=N/OCc2ccc(Cl)c(Cl)c2)cc1` .
Output: 0.92

###

system: HEK-293T; experiment: Incucyte cell viability with HEK293T; type: toxicity, cell-based; conditions: human, 24 h, 10 µM, compound concentration 10 uM, replicate number 2; further: unitless GR value; below 1 slowed growth and below 0 cell loss
Measure: Growth Rate
Output spec: single numeric token, no unit.

Recorded Growth Rate, per entry:
COc1cc(N2CCC(N3CCN(C)CC3)CC2)ccc1Nc1ncc(Cl)c(Nc2ccccc2S(=O)(=O)C(C)C)n1 [TAE-684] = 0.17
Cc1sc(C(=O)c2cncnc2N[C@@H]2C[C@H](COS(N)(=O)=O)[C@@H](O)C2)cc1[C@@H]1NCCc2ccc(Cl)cc21 = 0.88

Task: # lookup: Growth Rate of `C[C@@H](NC(=O)Cc1ccc(C2CC2)cc1)c1ccc(OCC(F)(F)F)cn1`
Output: 0.68

###

tested on: U2OS; assay: Incucyte cell viability with U2OS; type: toxicity, cell-based; conditions: human, 24 h, 10 µM, compound concentration 10 uM, replicate number 2; further: unitless GR value; below 1 slowed growth and below 0 cell loss
Rule: YES for Growth Rate not less than 0.8, NO for anything less.

O=C1CCCc2[nH]c(-c3ccnc(NCC4CC4)c3)c(Nc3ccccc3)c21 = YES

Task: # check: Growth Rate of `O=S(=O)(Nc1nnc2cc(OCC34CC5CC(CC(C5)C3)C4)c(C3CC3)cn12)C1CC1` is greater than or equal to 0.8
Output: YES

Task: Could you tell me if the measured Growth Rate of `O=C1NCc2ccc3c(-c4cccc(Cl)c4)c[nH]c3c21` reaches 0.8 or more?
Output: NO

Task: Kindly determine if Growth Rate recorded for Cn1nccc1Nc1nccc(-c2cc3c(s2)C(C)(C)N(CCN2CCOCC2)C3=O)n1 [TEMUTERKIB] is above or exactly 0.8.
Output: YES

Task: // inclusive: Growth Rate at least 0.8? input: CC(C)S(=O)(=O)c1ccccc1Nc1nc(N[C@@H]2CCCN(CCCCCCCNC(=O)COc3cccc4c3C(=O)N(C3CCC(=O)N(C)C3=O)C4=O)C2)ncc1Cl (some centres undefined)
Output: NO

Task: Check the entry `Cl.NC(=O)c1ccccc1Nc1nc(-c2ccc(N3CCOCC3)cc2)cc2ncccc12` : does Growth Rate equal or exceed 0.8?
Output: NO

Task: Is Growth Rate for `CCc1cc2c(cc1-c1cccc(S(=O)(=O)F)c1)C(C)(C)c1[nH]c3cc(C#N)ccc3c1C2=O` at or above 0.8?
Output: NO

Task: Item `Cc1cc(OC2CCS(=O)(=O)CC2)cc(C)c1-c1cccc(COc2ccc(C(=O)O)c(F)c2)c1` with Growth Rate of 0.8 or above?
Output: NO

###

tested on: HEK-293T; assay: Incucyte cell viability with HEK293T; type: toxicity, cell-based; settings: human, 0 h, 10 µM, compound concentration 10 uM, replicate number 2; further: unitless GR value; below 1 slowed growth and below 0 cell loss
Decision: Growth Rate beneath 0.4 gives Y; Growth Rate meeting or exceeding 0.4 gives N.

Task: Does the reported Growth Rate of the following compound sit strictly below 0.4? `COCc1c(-c2cc3cc(C)cc(OC)c3s2)c2c(N)ncnn2c1CN[C@@H]1CCNC1=O`
Output: Y

Task: Please indicate whether the reported Growth Rate of CCOc1cc(CC(=O)N[C@@H](CC(C)C)c2ccccc2N2CCCCC2)ccc1C(=O)O [REPAGLINIDE] is strictly below 0.4.
Output: N

Task: Record `O=C1NC(=Nc2c(Cl)cccc2Cl)S/C1=C\c1ccc2nccnc2c1` : is its Growth Rate strictly below 0.4?
Output: N

Task: Consider `CN1CC[C@@]23CCCC[C@@H]2[C@@H]1Cc1ccc(O)cc13.O=C(O)C(O)C(O)C(=O)O` . Does its Growth Rate lie strictly below 0.4?
Output: Y

Task: Take the compound `COc1c(NC(=O)c2cc3cccc(Oc4ccnc(C(=O)N5CCN(C)CC5)c4)c3n2C)cc(C(C)(C)C)cc1NS(C)(=O)=O` and say whether its Growth Rate is less than 0.4.
Output: Y

Task: Lab note: Growth Rate threshold 0.4. Does this compound come in strictly under it? Cc1onc(O)c1CC(N)C(=O)O [(R,S)-AMPA]
Output: N

###

system: U2OS; experiment: Incucyte cell viability with U2OS; format: toxicity, cell-based; details: human, 6 h, 10 µM, compound concentration 10 uM, replicate number 1; further: unitless GR value; below 1 slowed growth and below 0 cell loss
Measure: Growth Rate

# example entries with known answers
C1=Cc2ccccc2C(=C2CCN(CCCCc3nn[nH]n3)CC2)c2ccccc21 = 0.4
COCCN1CCN(CCn2ccc(Nc3ncc4c(n3)-c3c(nn(C)c3-c3ccccc3)C[C@H]4C)n2)CC1 = 0.91
COc1cc(/C=C(\C#N)C(=O)Nc2nnc(C(F)(F)F)s2)ccc1OCc1ccc(C(F)(F)F)cc1C(F)(F)F = 0.84
NC(=O)c1cc2c(-c3ccc(C(=O)NCc4ccnc(Cl)c4)s3)cccc2s1 = -0.24
CC1(C)Oc2ncnc(N)c2N=C1c1ccc([C@H]2CC[C@H](CC(=O)O)CC2)cc1 = 0.57
CC(=O)O[C@H]1C(=O)[C@@]2(C)[C@H]([C@H](OC(=O)c3ccccc3)[C@]3(O)C[C@H](OC(=O)[C@H](O)[C@@H](NC(=O)c4ccccc4)c4ccccc4)C(C)=C1C3(C)C)[C@]1(OC(C)=O)CO[C@@H]1C[C@@H]2O = -0.32
C/C=C1\C(=O)CC2C3CCC4=CC(=O)CC[C@]4(C)C3CC[C@]12C (stereo not given in full) = 0.52
O=C(O)c1cc(-c2ccccc2)ccc1O = 0.63
Cc1nccc(COC(=O)N2C[C@@H]3[C@@H](CNC(=O)c4ccc5[nH]nnc5c4)[C@@H]3C2)n1 = 0.95
COc1ccc(COc2ccc(Cc3cnc(N)nc3N)cc2OC)cc1 [GW632580X] = 0.52

Here's the next entry for you.
Task: // lookup Growth Rate for `CCCCCCCC/C=C\CCCCCCCC(=O)NCc1ccc(O)c(OC)c1`
Output: 0.77
